Test: Photophysical measurement
Assay type: physicochemical
Please go through the items and note down their λem.
// units = nm; emit number, no label

## Input Can you share its λem? I mean this compound: Cc1cc(-c2ccccc2)c2ccc3c(-c4ccccc4)cc(C)[n+]4c3c2[n+]1[Ir-3]412([c]3ccccc3-c3ccc4ccccc4[n+]31)[c]1ccccc1-c1ccc3ccccc3[n+]12.F[P-](F)(F)(F)(F)F
## Output 575

## Input Same read-out for Clc1cc[n+]2c3c1ccc1c(Cl)cc[n+](c13)[Ir-3]213([c]2ccccc2-c2ccc4ccccc4[n+]21)[c]1ccccc1-c1ccc2ccccc2[n+]13.F[P-](F)(F)(F)(F)F ?
## Output 590

## Input Same read-out for F[P-](F)(F)(F)(F)F.[Ir+3].[c-]1ccccc1-c1ccc2ccccc2n1.[c-]1ccccc1-c1ccc2ccccc2n1.c1cnc2c(c1)ccc1cccnc12 ?
## Output 570

## Input Same read-out for Clc1cc2cccnc2c2ncccc12.F[P-](F)(F)(F)(F)F.[Ir+3].[c-]1ccccc1-c1ccccn1.[c-]1ccccc1-c1ccccn1 ?
## Output 608

## Input Same read-out for Clc1cc2ccc[n+]3c2c2c1ccc[n+]2[Ir-3]312([c]3ccccc3-c3[nH]c4ccccc4[n+]31)[c]1ccccc1-c1[nH]c3ccccc3[n+]12.F[P-](F)(F)(F)(F)F ?
## Output 620

## Input Same read-out for Cc1cccc2[n+]1[Ir-3]13([c]4ccccc4-2)([c]2ccccc2-c2cccc(C)[n+]21)[n+]1ccc(-c2ccccc2)c2ccc4c(-c5ccccc5)cc[n+]3c4c21.F[P-](F)(F)(F)(F)F ?
## Output 590

## Input Same read-out for F[P-](F)(F)(F)(F)F.c1ccc(-c2ccc3ccc4ccc(-c5ccccc5)[n+]5c4c3[n+]2[Ir-3]523([c]4ccccc4-n4ccc[n+]42)[c]2ccccc2-n2ccc[n+]23)cc1 ?
## Output 629

## Input Same read-out for F[P-](F)(F)(F)(F)F.[Ir+3].[c-]1ccccc1-c1ncco1.[c-]1ccccc1-c1ncco1.c1ccc(-c2ccccn2)nc1 ?
## Output 580

## Input Same read-out for Cc1ccc2ccc3ccc(C)[n+]4c3c2[n+]1[Ir-3]412([c]3ccccc3-c3ccc4ccccc4[n+]31)[c]1ccccc1-c1ccc3ccccc3[n+]12.F[P-](F)(F)(F)(F)F ?
## Output 570

## Input Same read-out for Clc1cc2cccnc2c2ncccc12.F[P-](F)(F)(F)(F)F.[Ir+3].[c-]1ccccc1-c1ccc2ccccc2n1.[c-]1ccccc1-c1ccc2ccccc2n1 ?
## Output 571
